Attribution: paper PMC8588467

Test system: T98G glioblastoma cell line
methodSummary: MTT cytotoxicity, T98G
Type: cell-based, human
experimentalParameters: IC50 normal cells (WI38) / IC50 cancer cells; ns = no selectivity
assayEndpoint: SI T98G

Previously resolved entries follow.
compound	SI T98G
CCOCC(O)C[P+](c1ccccc1)(c1ccccc1)c1ccccc1.[I-] (stereo not drawn)	ns
C=CCOCC(O)C[P+](c1ccccc1)(c1ccccc1)c1ccccc1.[I-] (stereo not drawn)	1.8
COCC(O)C[P+](c1ccccc1)(c1ccccc1)c1ccccc1 (stereo not drawn) [3f]	ns
CCOCC(O)C[P+](c1ccccc1)(c1ccccc1)c1ccccc1 (stereo not drawn)	ns
CCCCCCCCCCOCC(O)C[P+](c1ccccc1)(c1ccccc1)c1ccccc1 (stereo not drawn)	2
OC(CBr)C[P+](c1ccccc1)(c1ccccc1)c1ccccc1 (stereo not drawn)	ns
COc1cccc2c1C(=O)c1c(O)c3c(c(O)c1C2=O)C[C@@](O)(C(=O)CO)C[C@@H]3O[C@H]1C[C@H](N)[C@H](O)[C@H](C)O1 [Dox, doxorubicin, reference compound]	ns
CCCCCCCCCCCCCCCC(=O)OCC(O)C[P+](c1ccccc1)(c1ccccc1)c1ccccc1 (stereo not drawn)	ns

Provide only the value of recorded SI T98G for COCC(O)C[P+](c1ccccc1)(c1ccccc1)c1ccccc1 (stereo not drawn) [4a]
ns
